- test.target: T1, HIS-PDZ1 protein (PSD-95 PDZ1, residues 61-151, with tag …) (human, UniProt P78352 61-151)
- T1 construct: expressed in E. coli
- experimental.protocol: FP saturation binding
pKd: −log10 of the molar value. Ends that are not written are not given here. * marks the point of attachment. 5FAM = O=C1OC2(c3ccc(O)cc3Oc3cc(O)ccc32)c2ccc(C(=O)*)cc21
measure.name: pKd

5FAM-KSGYEKLSSIESDV (also: entry also covers Cy5-NR2B: CSG linker, Cy5-maleimide on Cys, Kd said to be independent of the fluorophore; also called 5-FAM-NR2B; 5-Fam-NR2B peptide) [5-FAM/Cy5-NR2B] : 4.70
